Molecular target: T1, human CD3e/d (human, UniProt P07766 23-126; P04234 22-105)
T1 construct: Bought soluble protein; also called hCD3e/d; human CD3/ed (Sino CT038-H2508H)
T1 sequence (P07766 23-126, chain 1 of 2): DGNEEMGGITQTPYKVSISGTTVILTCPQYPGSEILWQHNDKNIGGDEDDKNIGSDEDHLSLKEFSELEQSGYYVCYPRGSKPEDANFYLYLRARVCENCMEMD
T1 sequence (P04234 22-105, chain 2 of 2): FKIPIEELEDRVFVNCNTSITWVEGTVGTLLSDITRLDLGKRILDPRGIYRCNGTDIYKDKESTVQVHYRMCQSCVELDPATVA
Assay: SPR (Carterra LSA), mAb on chip
Consider the following binders; for each one, report its pKd.
Formally, pKd is defined as -log10 of the concentration c, with c in mol/L.

Quick note, pKd for mAb 77 (antibody, V domains shown, VH and VL only) VH: EVQLVESGGGLVQPGGSLRLSCAASGFTFSNYWMSWVRQAPGKGLEWVANIKQDGSEKYYVDSVRGRFTISRDNAKKSLYLQMNSLRAEDTAVYYCARDNSNYAYWYFDIWGRGTLVTVSS VL: DIQMTQSPSTLSVSVGDRVTITCRASQSIRKWLAWYQQKPGKAPKLLIFKASSLESGVPSRFSGSGSGTEFTLTISSLQPDDFATYYCQQYDTYSRTFGQGTKVEIK landed at 6.54

Quick note, pKd for mAb 66 (antibody, V domains shown, VH and VL only) VH: QVQLVQSGAEVKKPGASVKVSCKASGYTVTGYYMHWVRQAPGQGLEWMGWINPNSGGTNFAQNFQGRVTMTRDTSISTFYMDLSRLRSDDTAVYYCARGGAPVSYWFFDLWGRGTLVTVSS VL: DIQMTQSPSSLSASVGDRVTITCRASQSISRYLNWYQQKPGKAPKVLIYNTSSLKSGVPSRFSGSGSGTDFTLTISSLQPEDFATLYCQQSHSTPFTFGPGTKVDIK landed at 6.83

Quick note, pKd for mAb 123 (antibody, V domains shown, VH and VL only) VH: DVQLVESGGGTVKTGGSLRLSCVASGFSFKKAWMNWVRQAPGKGLEWVGRIKKNSDDGTADYAAPVKGRFTISRDDSKRTLFLQMNSLQTEDTAVYYCTTLDSSSWFVGYYYMDVWGKGTTVTVSS VL: DIQMTQSPSSVSASVGDRVIITCRASQDINNWLAWYQQKPGKAPKLLIYTASSLQSGVPSRFSGSGSVSDFTLTIDSLQPEDFATYYCQQAHSLPITFGQGTRLEIK landed at 7.25

Data credit: patent US20230295310A1
